Entry source: patent US12275745B2

Target: TEAD2 (Homo sapiens, UniProt Q15562);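 also: TR-FRET competition assay with His-tagged TEAD protein and a biotinylated lipid pocket probe, where probe displacement by compound lowers the signal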
Sequence (Q15562 whole entry, species assumed): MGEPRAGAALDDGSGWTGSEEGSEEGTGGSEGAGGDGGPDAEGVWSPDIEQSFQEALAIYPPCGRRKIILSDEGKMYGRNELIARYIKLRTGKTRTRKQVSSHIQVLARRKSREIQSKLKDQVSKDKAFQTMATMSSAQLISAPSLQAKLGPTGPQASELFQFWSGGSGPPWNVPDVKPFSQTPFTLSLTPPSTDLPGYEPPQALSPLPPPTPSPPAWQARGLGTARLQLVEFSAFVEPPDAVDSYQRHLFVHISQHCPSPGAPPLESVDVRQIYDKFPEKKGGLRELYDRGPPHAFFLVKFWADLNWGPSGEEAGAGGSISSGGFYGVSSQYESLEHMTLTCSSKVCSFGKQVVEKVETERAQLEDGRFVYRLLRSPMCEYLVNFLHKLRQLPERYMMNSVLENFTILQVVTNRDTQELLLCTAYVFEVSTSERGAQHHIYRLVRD
Test: biochemical
PARAMETER MEASURED: pIC50
# pIC50 is unitless: minus log10 of the molar concentration; print number only

Use these answered entries as a reference point.
Look up pIC50: C=CC(=O)NCc1cc(-c2ccc(OC(F)(F)F)cc2)c2cccnc2c1[C@H](O)CO (single isomer, unassigned)
7.74

Next record, please: Cn1cnc2c(-c3ccc(OC(F)(F)F)cc3)nc(C3CN(C(=O)C45CC4C5)C3)nc21 (stereo not shown)
5.89

More entries:
Look up pIC50: `C=CC(=O)NCc1cc(-c2ccc(OC(F)(F)F)cc2)c2cccnc2c1C`
8.01

Next record, please: `C=CC(=O)NCc1cc(-c2ccc(OC(F)(F)F)cc2)c2ncoc2c1CO`
7.62
